Sourced from ChEMBL document CHEMBL4382192

# Target of assay: CYP3A4 (Homo sapiens, UniProt P08684)
# Sequence (P08684 whole entry): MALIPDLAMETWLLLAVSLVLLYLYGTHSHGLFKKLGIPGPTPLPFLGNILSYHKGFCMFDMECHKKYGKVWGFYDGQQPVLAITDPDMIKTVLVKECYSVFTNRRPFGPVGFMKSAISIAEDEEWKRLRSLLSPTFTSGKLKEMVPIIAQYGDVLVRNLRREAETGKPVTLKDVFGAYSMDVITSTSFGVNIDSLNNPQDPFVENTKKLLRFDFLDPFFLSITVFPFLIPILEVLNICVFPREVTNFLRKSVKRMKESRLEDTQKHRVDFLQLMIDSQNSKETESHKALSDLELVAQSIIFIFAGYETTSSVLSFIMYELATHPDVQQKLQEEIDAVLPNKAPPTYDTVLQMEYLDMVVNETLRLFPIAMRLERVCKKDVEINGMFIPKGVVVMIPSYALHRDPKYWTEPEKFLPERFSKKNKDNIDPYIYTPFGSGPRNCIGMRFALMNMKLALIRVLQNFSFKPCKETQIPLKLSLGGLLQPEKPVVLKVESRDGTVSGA
# Protocol details: Residual activity of CYP3A4 in human liver microsomes at 10 uM using midazolam 1-hydroxylase as substrate preincubated for 5 mins followed by NADPH addition measured after 15 mins by LC/MS/MS analysis relative to control
# Run parameters: probe midazolam (1-hydroxylation)

[
  {
    "Structure notation": "C=CC(=O)Nc1cc(Nc2ncc(Cl)c(Nc3ccccc3S(=O)(=O)N(C)C)n2)c(OC)cc1N(C)CCN(C)C",
    "Units text": "%",
    "Sign qualifier": "=",
    "Activity at […], 10 µM": 39
  },
  {
    "Structure notation": "C=CC(=O)Nc1cc(Nc2ncc(F)c(Nc3ccccc3P(C)(C)=O)n2)c(OC)cc1N(C)CCN(C)C",
    "Units text": "%",
    "Sign qualifier": ">",
    "Activity at […], 10 µM": 100
  },
  {
    "Structure notation": "C=CC(=O)Nc1cc(Nc2nccc(Nc3ccccc3S(=O)(=O)N(C)C)n2)c(OC)cc1N(C)CCN(C)C",
    "Units text": "%",
    "Sign qualifier": "=",
    "Activity at […], 10 µM": 56
  },
  {
    "Structure notation": "C=CC(=O)Nc1cc(Nc2nccc(Nc3ccccc3S(=O)(=O)C(C)C)n2)c(OC)cc1N(C)CCN(C)C",
    "Units text": "%",
    "Sign qualifier": "=",
    "Activity at […], 10 µM": 40
  },
  {
    "Structure notation": "C=CC(=O)Nc1cc(Nc2ncc(F)c(Nc3ccccc3S(=O)(=O)N(C)C)n2)c(OC)cc1N(C)CCN(C)C",
    "Units text": "%",
    "Sign qualifier": "=",
    "Activity at […], 10 µM": 71
  },
  {
    "Structure notation": "C=CC(=O)Nc1cc(Nc2nccc(Nc3ccccc3P(C)(C)=O)n2)c(OC)cc1N(C)CCN(C)C",
    "Units text": "%",
    "Sign qualifier": "=",
    "Activity at […], 10 µM": 89
  },
  {
    "Structure notation": "C=CC(=O)Nc1cc(Nc2ncc(I)c(Nc3ccccc3P(C)(C)=O)n2)c(OC)cc1N(C)CCN(C)C",
    "Units text": "%",
    "Sign qualifier": "=",
    "Activity at […], 10 µM": 88
  },
  {
    "Structure notation": "C=CC(=O)Nc1cc(Nc2ncc(Cl)c(Nc3ccccc3S(=O)(=O)C(C)C)n2)c(OC)cc1N(C)CCN(C)C",
    "Units text": "%",
    "Sign qualifier": "=",
    "Activity at […], 10 µM": 44
  },
  {
    "Structure notation": "C=CC(=O)Nc1cc(Nc2ncc(I)c(Nc3ccccc3S(=O)(=O)N(C)C)n2)c(OC)cc1N(C)CCN(C)C",
    "Units text": "%",
    "Sign qualifier": "=",
    "Activity at […], 10 µM": 54
  },
  {
    "Structure notation": "C=CC(=O)Nc1cc(Nc2ncc(Cl)c(Nc3ccccc3P(C)(C)=O)n2)c(OC)cc1N(C)CCN(C)C",
    "Units text": "%",
    "Sign qualifier": "=",
    "Activity at […], 10 µM": 91
  },
  {
    "Structure notation": "C=CC(=O)Nc1cc(Nc2ncc(F)c(Nc3ccccc3S(=O)(=O)C(C)C)n2)c(OC)cc1N(C)CCN(C)C",
    "Units text": "%",
    "Sign qualifier": "=",
    "Activity at […], 10 µM": 51
  },
  {
    "Structure notation": "C=CC(=O)Nc1cc(Nc2ncc(I)c(Nc3ccccc3S(=O)(=O)C(C)C)n2)c(OC)cc1N(C)CCN(C)C",
    "Units text": "%",
    "Sign qualifier": "=",
    "Activity at […], 10 µM": 47
  }
]
